Values compiled from ChEMBL document CHEMBL1129391.

IC50, Trypsin II (Bos taurus, UniProt Q29463), per-entry values.

[
  {
    "compound": "[H]/N=C(\\N)N1CCC[C@@H](C[C@@H](C=O)NC(=O)CN2CCC[C@H](NS(=O)(=O)Cc3ccccc3)C2=O)C1",
    "u": "nM",
    "IC50": 68400
  },
  {
    "compound": "CCCC(CCC)C(=O)N[C@@H](CC(=O)OC)C(=O)N1CCC[C@H]1C(=O)N[C@H](C=O)CC1CCCN(C(=N)N)C1 (stereo in doubt; 4b)",
    "u": "nM",
    "IC50": 69.7
  },
  {
    "compound": "N=C(N)NCCC[C@@H](C=O)NC(=O)CN1CCC[C@H](NS(=O)(=O)Cc2ccccc2)C1=O",
    "u": "nM",
    "IC50": 1550
  },
  {
    "compound": "N=C(N)N1CCCC(C[C@@H](C=O)NC(=O)CN2CCCC[C@H](NS(=O)(=O)Cc3ccccc3)C2=O)C1 (stereo in doubt; 6b)",
    "u": "nM",
    "IC50": 45800
  },
  {
    "compound": "N=C(N)N1CCCC(C[C@@H](C=O)NC(=O)CN2CCCC[C@H](NS(=O)(=O)Cc3ccccc3)C2=O)C1 (stereo in doubt; 6a)",
    "u": "nM",
    "IC50": 15100
  },
  {
    "compound": "CCCC(CCC)C(=O)N[C@@H](CC(=O)OC)C(=O)N1CCC[C@H]1C(=O)N[C@H](C=O)CCCNC(=N)N",
    "u": "nM",
    "IC50": 1.2
  },
  {
    "compound": "N=C(N)NCCC[C@@H](C=O)NC(=O)CN1CCCC[C@H](NS(=O)(=O)Cc2ccccc2)C1=O",
    "u": "nM",
    "IC50": 329
  }
]

---

pIC50, Prothrombin (Homo sapiens, UniProt P00734), per-entry values.
pIC50: −log10 of the molar value.

[
  {
    "molecule.smiles": "N=C(N)NCCC[C@@H](C=O)NC(=O)CN1CCCC[C@H](NS(=O)(=O)Cc2ccccc2)C1=O",
    "pIC50": 9.15
  },
  {
    "molecule.smiles": "[H]/N=C(\\N)N1CCC[C@@H](C[C@@H](C=O)NC(=O)CN2CCC[C@H](NS(=O)(=O)Cc3ccccc3)C2=O)C1",
    "pIC50": 9.17
  },
  {
    "molecule.smiles": "N=C(N)NCCC[C@@H](C=O)NC(=O)CN1CCC[C@H](NS(=O)(=O)Cc2ccccc2)C1=O",
    "pIC50": 7.91
  }
]

---

- target.desc: Coagulation factor X (Homo sapiens, UniProt P00742)
- Sequence (P00742 41-179 limits assumed): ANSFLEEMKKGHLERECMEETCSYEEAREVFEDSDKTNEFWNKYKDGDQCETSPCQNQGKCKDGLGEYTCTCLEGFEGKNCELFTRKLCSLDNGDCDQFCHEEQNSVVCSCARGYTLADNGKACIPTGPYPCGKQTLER
- Sequence (P00742 235-488 limits assumed): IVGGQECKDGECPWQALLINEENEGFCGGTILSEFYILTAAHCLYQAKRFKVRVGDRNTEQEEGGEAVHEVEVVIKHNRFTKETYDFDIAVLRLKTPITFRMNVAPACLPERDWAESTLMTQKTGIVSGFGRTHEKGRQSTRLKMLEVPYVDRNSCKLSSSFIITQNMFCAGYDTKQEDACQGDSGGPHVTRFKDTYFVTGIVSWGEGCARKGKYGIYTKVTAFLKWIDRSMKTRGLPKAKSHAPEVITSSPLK
List of IC50 values.

[
  {
    "compound": "CCCC(CCC)C(=O)N[C@@H](CC(=O)OC)C(=O)N1CCC[C@H]1C(=O)N[C@H](C=O)CC1CCCN(C(=N)N)C1 (stereo in doubt; 4a)",
    "target.desc": "Coagulation factor X (Homo sapiens, UniProt P00742)",
    "op": ">",
    "IC50, nM": 2500
  },
  {
    "compound": "N=C(N)NCCC[C@@H](C=O)NC(=O)CN1CCC[C@H](NS(=O)(=O)Cc2ccccc2)C1=O",
    "target.desc": "Coagulation factor X (Homo sapiens, UniProt P00742)",
    "op": ">",
    "IC50, nM": 2500
  },
  {
    "compound": "CCCC(CCC)C(=O)N[C@@H](CC(=O)OC)C(=O)N1CCC[C@H]1C(=O)N[C@H](C=O)CCCNC(=N)N",
    "target.desc": "Coagulation factor X (Homo sapiens, UniProt P00742)",
    "op": "=",
    "IC50, nM": 301
  },
  {
    "compound": "N=C(N)NCCC[C@@H](C=O)NC(=O)CN1CCCC[C@H](NS(=O)(=O)Cc2ccccc2)C1=O",
    "target.desc": "Coagulation factor X (Homo sapiens, UniProt P00742)",
    "op": "=",
    "IC50, nM": 20.6
  }
]
